system: MS2 coat protein; test: apparent KD of MS2 coat protein; designed switch direction (-1 OFF switch, 1 ON switch): -1; higher = weaker reporter binding; conditions: Eterna round: R95; input ligand: none
Mark n for apparent KD of MS2 coat protein values under 30 nM, and y for everything at or above.

Below are worked cases with known answers.
CHAIN_SEQUENCE	TARGET	LABEL_VALUE
GGUUGACAUGAGGAUCACCCAUGUGAGGAUAUGCGAGAGAAAAAAGUGAGGAAGGUUUGCAGAAGGCGCUGUCG [salish99-ex1_r3_008] (puzzle: Exclusion 1)	MS2 coat protein	y
AAUGCAAGCAAGAUCCUAAACAUGAGGAUCACCCAUGUGCUCGUCUUAUAAAGUACUAUCACGAAAGUGAUAGUACA [Sensor 3, v1 - 64] (puzzle: Sensor v3, turn-off variant 1)	MS2 coat protein	y
AGUAGUAGUAUCCGAUCUUACAUGAGGAUCACCCAUGUAUCUAGACGUGCACGCGAUGCUCGUCAGACUACCAGAUG [salish99_TOv1_r3_052] (puzzle: Sensor v3, turn-off variant 1)	MS2 coat protein	y
UUUAAUUUUUUUUUUUUACAAGCUUUUUGCUCGUCUUAUACAUGAGGAUCACCCAUGUGGGUGAAGGAUAAAUUAUC [JMF 26] (puzzle: Sensor v3, turn-off variant 2)	MS2 coat protein	y

Request: Confirm if apparent KD of MS2 coat protein reported for the sequence UUAUAUAGUGUGAGGAUAUGCUGGUCCUUGGAUCAGCAGAAGGCACAUGAGGAUCACCCAUGUAGUUAAUUUUA [JL bmx4 3.03] (puzzle: Brourd's mod of Exclusion 4) is 30 nM or above.
Response: n

The origin of these recorded values is the supplement of paper PMC9170038.
